# Study Target: Nuclear receptor subfamily 1 group I member 2 (Homo sapiens)
# Assay Details: NVS_NR_hPXR: NovaScreen (NVS) Nuclear Receptor Binding Assay for human Pregnane X Receptor (PXR) (AID 2283365);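 note: a drop in FRET signal versus DMSO baseline means the compound binds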
Results filed as inconclusive are left out. The source made the active and inactive calls. Rule for the calls: active = hit-call score of the fitted dose curve at least 0.9, where 1 is the maximum; inconclusive = response in the unintended direction; inactive = score below 0.9.
Would you mind answering with one of these outcomes? active, inactive

Outcome? CCCCCCCC/C=C\CCCCCCCC(=O)OCC(O)CO (stereo not given)
active

Now give it for CCc1cc(Cc2cc(CC)c(N)c(CC)c2)cc(CC)c1N too.
inactive

Now give it for CCCCCCCCCCCCC[N+](C)(C)Cc1ccccc1 too.
active

Now give it for CC(C)(C)c1cc(Cc2cc(C(C)(C)C)c(O)c(C(C)(C)C)c2)cc(C(C)(C)C)c1O too.
inactive

Now give it for CCCCCCCCCc1ccc(OCCO)cc1 too.
inactive
